Where these numbers come from: ChEMBL document CHEMBL4613226

# tgt: Mitochondrial amidoxime reducing component 2 (Homo sapiens)
# Sequence (Q969Z3 whole entry): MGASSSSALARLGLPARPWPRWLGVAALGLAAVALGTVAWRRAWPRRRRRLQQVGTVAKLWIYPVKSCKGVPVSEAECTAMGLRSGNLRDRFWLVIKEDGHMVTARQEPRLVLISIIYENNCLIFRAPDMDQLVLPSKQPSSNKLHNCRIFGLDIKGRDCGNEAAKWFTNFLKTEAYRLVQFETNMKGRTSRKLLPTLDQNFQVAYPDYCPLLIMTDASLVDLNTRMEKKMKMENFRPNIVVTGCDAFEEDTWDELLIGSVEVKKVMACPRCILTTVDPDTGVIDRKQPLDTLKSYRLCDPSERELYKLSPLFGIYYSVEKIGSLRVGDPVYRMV
# assay.text: Substrate activity at human mARC2 expressed in Escherichia coli assessed as turnover rates at 3 mM pre-incubated for 3 mins followed by NADH addition and measured after 15 mins by UV-Visible spectroscopy based NADH assay
# Format: ADME
# condition.summary: 0.25 h, 3000 µM
# reported Activity; entries follow
# unit: nmol/mg/min | format: bare number

Examples from the recorded data:
{"compound": "NC(=O)NO [HYDROXYUREA]", "Activity [nmol/mg/min]": 34.4}
{"compound": "O=c1nc(NO)ccn1[C@@H]1O[C@H](CO)[C@@H](O)[C@H]1O [N-HYDROXYCYTIDINE]", "Activity [nmol/mg/min]": 142.1}
{"compound": "NC(=NO)c1ccccc1 [BENZAMIDOXIME]", "Activity [nmol/mg/min]": 394.3}

Lab note: next compound to report on.
Test item O=CN(O)CCCP(=O)([O-])O.[Na+] [FOSMIDOMYCIN SODIUM] ; Mitochondrial amidoxime reducing component 2 (Homo sapiens); reported Activity was 27.8

====

# tgt: Mitochondrial amidoxime-reducing component 1 (Homo sapiens)
# Sequence (Q5VT66 whole entry): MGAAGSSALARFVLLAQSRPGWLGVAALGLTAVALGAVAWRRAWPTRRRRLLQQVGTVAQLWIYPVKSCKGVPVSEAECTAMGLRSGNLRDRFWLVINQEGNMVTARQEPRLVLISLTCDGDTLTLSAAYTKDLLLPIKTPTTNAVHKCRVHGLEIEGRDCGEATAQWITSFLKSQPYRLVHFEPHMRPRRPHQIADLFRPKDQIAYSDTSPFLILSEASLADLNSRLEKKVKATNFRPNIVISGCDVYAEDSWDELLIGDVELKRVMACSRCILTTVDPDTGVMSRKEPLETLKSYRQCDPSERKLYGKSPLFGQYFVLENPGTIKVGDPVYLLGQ
# assay.text: Substrate activity at human mARC1 expressed in Escherichia coli assessed as turnover rates at 3 mM pre-incubated for 3 mins followed by NADH addition and measured after 15 mins by UV-Visible spectroscopy based NADH assay
# Assay type: ADME
# condition.summary: 0.25 h, 3000 µM
Assign class by Activity: not lower than 400 nmol/mg/min means MET; lower than 400 nmol/mg/min means NOT MET.

Recorded results for 5 compounds are shown here.
{"compound": "O=CN(O)CCCP(=O)([O-])O.[Na+] [FOSMIDOMYCIN SODIUM]", "assigned.label": "NOT MET"}
{"compound": "NC(=O)NO [HYDROXYUREA]", "assigned.label": "MET"}
{"compound": "C[N+](C)([O-])CCC=C1c2ccccc2CCc2ccccc21 [AMITRIPTYLINOXIDE]", "assigned.label": "NOT MET"}
{"compound": "NC(=NO)c1ccccc1 [BENZAMIDOXIME]", "assigned.label": "MET"}
{"compound": "O=c1nc(NO)ccn1[C@@H]1O[C@H](CO)[C@@H](O)[C@H]1O [N-HYDROXYCYTIDINE]", "assigned.label": "NOT MET"}

Turning to the following compound.
Is reported Activity greater than or equal to 400 nmol/mg/min here: NC(=O)c1ccc[n+]([O-])c1
NOT MET

====

# reported Activity; entries follow
# tgt: Mitochondrial amidoxime-reducing component 1 (Homo sapiens)
# assay.text: Substrate activity at human mARC1 expressed in Escherichia coli assessed as turnover rates at 3 mM pre-incubated for 3 mins followed by NADH addition and measured after 15 mins by LC-MS analysis based assay
# Format: ADME
# condition.summary: 0.25 h, 3000 µM
I'd appreciate it if you wrote the number followed by its unit.

Examples from the recorded data:
{"compound": "NC(=NO)c1ccccc1 [BENZAMIDOXIME]", "result": "549.6 nmol/mg/min"}
{"compound": "C[N+](C)([O-])CCC=C1c2ccccc2CCc2ccccc21 [AMITRIPTYLINOXIDE]", "result": "3.1 nmol/mg/min"}
{"compound": "NC(=O)c1ccc[n+]([O-])c1", "result": "239.3 nmol/mg/min"}

Lab note: next compound to report on.
Test item O=c1nc(NO)ccn1[C@@H]1O[C@H](CO)[C@@H](O)[C@H]1O [N-HYDROXYCYTIDINE] ; Mitochondrial amidoxime-reducing component 1 (Homo sapiens); reported Activity was 354.8 nmol/mg/min
